Test system: A549
Test: Cytotoxicity against human A549 cells after 48 hrs by MTT assay
Type: functional, cell-based
Details: A549, 48 h
Listing of entries alongside the reported IC50.
endpoint: IC50 (µM)

* COc1cc(-c2cc(COCc3cn(Cc4cc(-c5ccccc5)cnc4Cl)nn3)on2)cc(OC)c1OC | 112
* COc1cc(-c2cc(COCc3cn(Cc4cc(C)cnc4N4CCSCC4)nn3)on2)cc(OC)c1OC | 40
* COc1cc(COCc2cn(Cc3cc(-c4ccc(C)cc4)cnc3N3CCSCC3)nn2)cc(OC)c1OC | 33.9
* COc1cc(-c2cc(COCc3cn(Cc4cc(C)cnc4N4CCOCC4)nn3)on2)cc(OC)c1OC | 39.5
* COc1cc(COCc2cn(Cc3cc(C)cnc3Cl)nn2)cc(OC)c1OC | 41.9

# credit: ChEMBL document CHEMBL3397031
